Overview of recorded Activity for various compounds
test: Induction of nitric oxide release assessed as nitrate/nitrite level at 100 uM after 50 mins by Griess assay; type: functional
State the answer as a number, implicitly in µM.

Query :: Give the measured Activity for C=C1C(=O)[C@@]23C(=O)OC[C@@]4(C2CC[C@@H]1[C@H]3OC(=O)CCC(=O)OCCCCOc1no[n+]([O-])c1S(=O)(=O)c1ccccc1)[C@@H](OC(C)=O)CCC(C)(C)[C@H]4C=O (stereo not given in full)
Result :: 26.8

Query :: Give the measured Activity for C=C1C(=O)[C@@]23C(=O)OC[C@@]4(C2CC[C@@H]1[C@H]3OC(=O)c1ccccc1C(=O)OCCCCOc1no[n+]([O-])c1S(=O)(=O)c1ccccc1)[C@@H](OC(C)=O)CCC(C)(C)[C@H]4C=O (stereo not given in full)
Result :: 21.5

Query :: Give the measured Activity for C=C1C(=O)[C@@]23C(=O)OC[C@@]4(C2CC[C@@H]1[C@H]3OC(=O)c1ccccc1C(=O)OCCCOc1no[n+]([O-])c1S(=O)(=O)c1ccccc1)[C@@H](OC(C)=O)CCC(C)(C)[C@H]4C=O (stereo not given in full)
Result :: 22.1

Query :: Give the measured Activity for C=C1C(=O)[C@@]23C(=O)OC[C@]4(C(=O)CCC(C)(C)[C@H]4C=O)C2CC[C@@H]1[C@H]3OC(=O)c1ccccc1C(=O)OCCCOc1no[n+]([O-])c1S(=O)(=O)c1ccccc1 (stereo not given in full)
Result :: 12.4

Next:
Query :: Give the measured Activity for C=C1C(=O)[C@@]23C(=O)OC[C@@]4(C2CC[C@@H]1[C@H]3OC(=O)CCC(=O)OCCCOc1no[n+]([O-])c1S(=O)(=O)c1ccccc1)[C@@H](OC(C)=O)CCC(C)(C)[C@H]4C=O (stereo not given in full)
Result :: 24.7
